Origin of the recorded values: patent US10633366B2

// values below are reported inhibition at 50 µM
molecular target: E. coli Topoisomerase IV (Escherichia coli, UniProt P0AFI2+P20083); assay: biochemical; conditions: read-out: % inhibition Topo IV
Please give a number only; it is taken to be in %.

O=c1nc(NCC(O)CN2CCN(c3nccc4ccncc34)CC2)c2cc(F)ccc2o1 (stereo not shown)
100

Problem: What measured inhibition at 50 µM goes with "COc1ccc2ccc(=O)n([C@H]3CC[C@H](NCc4cc5c(=O)oc6ccc(F)cc6c5[nH]4)CC3)c2c1" ?
Solution: 100

Problem: Look up inhibition at 50 µM for this molecule: "N#Cc1ccc2ccc(=O)n([C@H]3CC[C@H](NCc4cc5c(=O)oc6ccc(F)cc6c5[nH]4)CC3)c2c1"
Solution: 100

Problem: Would you mind telling me what inhibition at 50 µM value was observed for "COc1ccc2ncc(=O)n(C3CCN(CCc4cc5c(=O)oc6ccc(F)cc6c5[nH]4)CC3)c2n1" ?
Solution: 63

Problem: Tell me the measured inhibition at 50 µM of "O=C1COc2ncc(F)cc2N1[C@H]1CC[C@](CO)(NCc2cc3c(=O)oc4ccc(F)cc4c3[nH]2)CC1" , please.
Solution: 50

Problem: Which value of inhibition at 50 µM has been reported for O=c1nc(NCC(O)CN2CCN(c3nccc4cc[n+]([O-])cc34)CC2)c2cc(F)ccc2o1 (stereo not shown) in the records?
Solution: 100

---

log10(IC50): recorded values
molecular target: E. coli DNA gyrase (Escherichia coli, UniProt P0AES4+P0AES6); assay: biochemical; conditions: IC50 DNA gyrase
Note: values are log10 of IC50 expressed in nM.

NC(=O)[C@]1(NCc2cc3c(=O)oc4ccc(F)cc4c3[nH]2)CC[C@H](N2C(=O)COc3ncc(F)cc32)CC1
3.16

Problem: Returns the measured log10(IC50) for the input compound. Input: "O=C1COc2ncc(F)cc2N1[C@H]1CC[C@H](NCc2cc3c(=O)oc4cccnc4c3[nH]2)CC1"
Solution: 2.66

Problem: # lookup: log10(IC50) of O=c1oc2ccccc2c2[nH]c(CNCC3CCN(c4nccc5ccc(F)cc45)C3)cc12 (single isomer, unassigned) [Compound 180]
Solution: 2.68

Problem: log10(IC50) for O=c1cc(NCC(O)C2CCN(C[C@@H]3Cn4c(=O)ccc5ncc(=O)n3c54)CC2)c2cc(F)ccc2o1 (mixture of isomers) ?
Solution: 2.96

Problem: Recorded log10(IC50) of "O=c1oc2ccc(F)cc2c2[nH]c(CN[C@H]3CC[C@H](n4c(=O)ccc5ccc(F)cc54)CC3)cc12" , please.
Solution: 2.11

---

target: S. aureus Topoisomerase IV (Staphylococcus aureus, UniProt P0C1S7+P0C1U9); experiment: biochemical; conditions: IC50 Topo IV
pIC50: −log10 of the molar value.
REPORTED_PROPERTY: pIC50

COc1cnc2ccc(=O)n(C3CCN(CCc4cc5c(=O)oc6ccc(F)cc6c5[nH]4)CC3)c2n1 [Compound 200]
> 7.00
O=C1COc2ncc(F)cc2N1[C@H]1CC[C@H](NCc2cc3ncc4c(c3[nH]2)OCCO4)CC1 [Compound 314]
< 4.00
O=C1COc2ncc(F)cc2N1C1CCN(CC(O)CNc2cc(=O)oc3ccc(F)cc23)CC1 (centres unmarked) [Compound 303]
< 4.00
COc1cnc2ccc(=O)n([C@H]3CC[C@H](NCc4cc5c(=O)oc6ccc(F)cc6c5[nH]4)CC3)c2c1 [Compound 204]
> 7.00
O=c1oc2ccc(F)cc2c2[nH]c(CN[C@H]3CC[C@H](n4c(=O)cnc5ccc(F)cc54)CC3)cc12 [Compound 211]
> 7.00

Problem: For the molecule COc1ccc2ncc(=O)n([C@H]3CC[C@H](NCc4cc5c(=O)oc6ccc(F)cc6c5[nH]4)CC3)c2n1 [Compound 201] , what pIC50 is on record?
Solution: > 7.00

Problem: # input molecule: N#Cc1ccc2ccc(=O)n([C@H]3CC[C@H](NCc4cc5c(=O)oc6ccc(F)cc6c5[nH]4)CC3)c2c1 [Compound 206] ; wanted: its pIC50
Solution: > 7.00

Problem: Consider the molecule O=c1oc2ccc(F)cc2c2[nH]c(CN[C@H]3CC[C@H](n4c(=O)ccc5ncc(F)cc54)CC3)cc12 [Compound 207] and give its measured pIC50.
Solution: > 7.00
